These data points were gathered from the supplement of paper PMC9233669.

- Tested on: biotinyl-Ile-oxazolone
- assay method text: self-aminoacylation, catalytic enhancement (BIO) (fold over background); higher = more active; k-Seq, kA / k0A0; sequences stand for … in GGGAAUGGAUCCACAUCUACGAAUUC…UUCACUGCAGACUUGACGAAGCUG
Variants at the floor of the assay were thinned out.
Parameter threshold = 1. Response is fulfilled when self-aminoacylation meets or exceeds it, else not fulfilled.

AUUACCCUGGUCGUCGGGUGA [Fam2.1 aminoacylation ribozyme variant] | fulfilled

Does the reported self-aminoacylation for AAGUUUGCUCAUAGUAGCAAG [Fam3.1 aminoacylation ribozyme variant] fall at or above the 1 mark?
not fulfilled

* * *

- Test system: biotinyl-Trp-oxazolone
- assay method text: self-aminoacylation, catalytic enhancement (BWO) (fold over background); higher = more active; k-Seq, kA / k0A0; sequences stand for … in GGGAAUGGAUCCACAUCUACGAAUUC…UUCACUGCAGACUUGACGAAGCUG
Variants at the floor of the assay were thinned out.
Label Met when self-aminoacylation is at or above 5; otherwise label Not met.

AAGAUUGCUAAUAGUCGCAUG [Fam3.1 aminoacylation ribozyme variant] | Not met
CUACUCCAAACAAUCGAUCUG [Fam1A.1 aminoacylation ribozyme variant] | Not met
AAGUUUGCUAAGAGUCGCCAG [Fam3.1 aminoacylation ribozyme variant] | Not met
CUAUUUCAAACAAUCGGUCGG [Fam1A.1 aminoacylation ribozyme variant] | Not met
CUACAUGAAACAAUCGGUCUG [Fam1A.1 aminoacylation ribozyme variant] | Not met
AUUCGCCUAAGUCAUCGGGUG [Fam2.2 aminoacylation ribozyme variant] | Met

Say whether CCACACUUCAGGCAAUCGGUA [Fam1B.1 aminoacylation ribozyme variant] shows self-aminoacylation of 5 or more.
Not met

// inclusive: self-aminoacylation at least 5? input: AUAACCCUGGUUAUCGAGUGA [Fam2.1 aminoacylation ribozyme variant]
Met

Quick check: does GUUCACCUAGGUCAUCGGGUU [Fam2.2 aminoacylation ribozyme variant] have self-aminoacylation greater than or equal to 5?
Met

State whether the measured self-aminoacylation reaches 5, counting equality as reaching it, for CCACACUUCAAUCAAACGGUC [Fam1B.1 aminoacylation ribozyme variant]
Not met

Identify whether the reported self-aminoacylation of the following sequence is 5 or greater: AUUCACCUGGGUCAUCGGGGG [Fam2.2 aminoacylation ribozyme variant]
Not met

Quick check: does CGACACUUCAAGCAUUCGGUC [Fam1B.1 aminoacylation ribozyme variant] have self-aminoacylation greater than or equal to 5?
Not met

* * *

- System: biotinyl-Met-oxazolone
- assay method text: self-aminoacylation, catalytic enhancement (BMO) (fold over background); higher = more active; k-Seq, kA / k0A0; sequences stand for … in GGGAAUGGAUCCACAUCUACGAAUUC…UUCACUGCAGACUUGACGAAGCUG
This sample holds only a part of the variants without activity.
This listing pairs sequences with measured self-aminoacylation.
A bare number is all that is needed in reply.

Reference set, count: 6
CUACUUCAAACAAACGGACUG [Fam1A.1 aminoacylation ribozyme variant] | 0.473
CUAUUUCAUACAAUCGGUCUG [Fam1A.1 aminoacylation ribozyme variant] | 0.837
AAGAUUGCUAAUAGUCGGAAG [Fam3.1 aminoacylation ribozyme variant] | 0.909
AUUACCCUAUUCAUCGAGUGA [Fam2.1 aminoacylation ribozyme variant] | 4.25
AUUACCGUGGGCAUCGAGUGA [Fam2.1 aminoacylation ribozyme variant] | 5.35
GUUACCCUUGUCAUCGAGUGA [Fam2.1 aminoacylation ribozyme variant] | 8.39

# sequence AUUACCCUGGUCAUCGAGCGG [Fam2.1 aminoacylation ribozyme variant] ; its self-aminoacylation = 2.38

Quick note, self-aminoacylation for AAGUCUGCUAGUAGUCGCAAG [Fam3.1 aminoacylation ribozyme variant] landed at 0.975

Entry UCGCACUUCAAGCAAUCGGUC [Fam1B.1 aminoacylation ribozyme variant] — recorded self-aminoacylation = 1.44

Recorded self-aminoacylation (sequence AUUACCCUGGUCAUCGGGAGA [Fam2.1 aminoacylation ribozyme variant] ): 2.97

Memo: AUUACCCUGGUCAUGGAGUGA [Fam2.1 aminoacylation ribozyme variant] , reported self-aminoacylation: 4.69

Input AAUUUUGGUAAUAGUCGCAAG [Fam3.1 aminoacylation ribozyme variant] . Output self-aminoacylation: 2.19

* * *

- System: biotinyl-Phe-oxazolone
- assay method text: self-aminoacylation, catalytic enhancement (BFO) (fold over background); higher = more active; k-Seq, kA / k0A0; sequences stand for … in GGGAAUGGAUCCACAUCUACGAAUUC…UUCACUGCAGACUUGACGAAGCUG
This sample holds only a part of the variants without activity.
readout: self-aminoacylation

The examples below pair each entry with its known result.
AAUUUUGCUAGUAGUCGCAAG [Fam3.1 aminoacylation ribozyme variant] | 2.34
CCACACUUGAAGCAAUCGUUC [Fam1B.1 aminoacylation ribozyme variant] | 0.863

AUAACCUUGGUCAUCGAGUGA [Fam2.1 aminoacylation ribozyme variant] yielded self-aminoacylation of 27.1

Measured self-aminoacylation of CUACUUCAAACAAACGAUCUG [Fam1A.1 aminoacylation ribozyme variant] : 0.828

* * *

# reported self-aminoacylation; entries follow
- Test system: biotinyl-Phe-oxazolone
- assay method text: self-aminoacylation, catalytic enhancement (BFO) (fold over background); higher = more active; k-Seq, kA / k0A0; sequences stand for … in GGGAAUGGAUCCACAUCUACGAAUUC…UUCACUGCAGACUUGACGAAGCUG
Variants at the floor of the assay were thinned out.
Give the figure only, with no unit attached.

Past entries and their recorded results:
AAGUUUGUUAAUAGUCGUAAG [Fam3.1 aminoacylation ribozyme variant] | 1.38
AUUGCCCUGGGCAUCGAGUGA [Fam2.1 aminoacylation ribozyme variant] | 44.5
ACUACCCUGGUCAUCGGGUGA [Fam2.1 aminoacylation ribozyme variant] | 293
AUGACCCUGGACAUCGAGUGA [Fam2.1 aminoacylation ribozyme variant] | 15.9

Lab note: next sequence to report on.
Fill in: biotinyl-Phe-oxazolone self-aminoacylation for AUUCACCUAGGUCAUCUAGUG [Fam2.2 aminoacylation ribozyme variant] = 18.7

* * *

- Test system: biotinyl-Leu-oxazolone
- assay method text: self-aminoacylation, catalytic enhancement (BLO) (fold over background); higher = more active; k-Seq, kA / k0A0; sequences stand for … in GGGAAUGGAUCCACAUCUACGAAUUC…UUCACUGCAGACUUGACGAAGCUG
This sample holds only a part of the variants without activity.
Measured self-aminoacylation values are reported for all entries that follow.
I'd appreciate a reply containing only the number, no unit.

CUACUUCAAAGAAUAGGUCUG [Fam1A.1 aminoacylation ribozyme variant] | 0.699
AAGUUUGCUAUUACUCGCAAG [Fam3.1 aminoacylation ribozyme variant] | 0.82
CUACUUCAAACAAUCGGUCGA [Fam1A.1 aminoacylation ribozyme variant] | 0.992

As a next step, examine the sequence that follows.
Input AUUCACCUGGGUCAUCGGGUG [Fam2.2 aminoacylation ribozyme variant] . Output self-aminoacylation: 23.2

* * *

- System: biotinyl-Leu-oxazolone
- assay method text: self-aminoacylation, catalytic enhancement (BLO) (fold over background); higher = more active; k-Seq, kA / k0A0; sequences stand for … in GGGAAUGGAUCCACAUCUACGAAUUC…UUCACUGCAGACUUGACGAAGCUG
Variants at the floor of the assay were thinned out.
Listed sequences paired with reported self-aminoacylation
Hey, just send me the number, nothing else.

See these solved cases before continuing.
CUGCUUCAAACCAUCGGUCUG [Fam1A.1 aminoacylation ribozyme variant] | 0.631
AUUCAGCUAGGUCAUCCGGUG [Fam2.2 aminoacylation ribozyme variant] | 8.88
CUACUUCAACCAAGCGGUCUG [Fam1A.1 aminoacylation ribozyme variant] | 0.942
AUGACCCUGGUCCUCGAGUGA [Fam2.1 aminoacylation ribozyme variant] | 3.2
AUUCACGUAGGUCAUCGGGCG [Fam2.2 aminoacylation ribozyme variant] | 2.57

sequence AAGUUUGCGAAUAGUCGAAAG [Fam3.1 aminoacylation ribozyme variant] , self-aminoacylation observed: 1.11

Lookup result for CCACGCUCCAAGCAAUCGGUC [Fam1B.1 aminoacylation ribozyme variant] ; measured self-aminoacylation: 1.11

Form: sequence = AAGUGUGCUAAUAGUAGCAAG [Fam3.1 aminoacylation ribozyme variant] ; self-aminoacylation = 1.21

* * *

# self-aminoacylation per entry
- System: biotinyl-Trp-oxazolone
- assay method text: self-aminoacylation, catalytic enhancement (BWO) (fold over background); higher = more active; k-Seq, kA / k0A0; sequences stand for … in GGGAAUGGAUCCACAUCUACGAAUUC…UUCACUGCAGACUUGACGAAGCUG
Variants at the floor of the assay were thinned out.
Please respond with just the number, no unit label.

Some sequences with recorded self-aminoacylation:
AAUCACCUAGGUGAUCGGGUG [Fam2.2 aminoacylation ribozyme variant] | 5.05
AUUCACUUAGUUCAUCGGGUG [Fam2.2 aminoacylation ribozyme variant] | 3.28
CUAUUUCAAACAAUCGGUGUG [Fam1A.1 aminoacylation ribozyme variant] | 0.757
AUUACCCUGGUCAUGGAGUGC [Fam2.1 aminoacylation ribozyme variant] | 0.556
AAGUUCGCCAAUAGUCGCAAG [Fam3.1 aminoacylation ribozyme variant] | 2.98

Note: attention shifts to another entry.
# sequence CUACUUCAGGCAAUCGGUCUG [Fam1A.1 aminoacylation ribozyme variant] ; its self-aminoacylation = 1.27
